Data provenance: PubChem BioAssay AID1996

Exercise: for every item that follows, state its recorded solubility kinetic.
Details: buffer; pH 7.4; 200.0 µM

QUERY: # lookup: solubility kinetic of COc1ccccc1C1CCN(c2ccc([N+](=O)[O-])c(OC)c2)CC1
RESULT: < 0.4 µg/mL

QUERY: And the next one, COC(=O)Cc1c(O)ccn(Cc2ccc3c(c2)OCO3)c1=O ?
RESULT: > 47.6 µg/mL

QUERY: What do we get for COc1ccccc1C(=O)NS(=O)(=O)c1ccc(C)cc1 ?
RESULT: > 45.8 µg/mL

QUERY: What would you report for C[C@@H](C(=O)Nc1ccccc1N1CCOCC1)N1C(=O)C2CCCCC2C1=O (stereo not given in full) ?
RESULT: > 57.8 µg/mL

QUERY: Also CCOc1ccccc1Nc1nnc(SCC(=O)NC2CCS(=O)(=O)C2)s1 (stereo not given) ?
RESULT: > 64.3 µg/mL

QUERY: What about CCOP(=O)(OCC)C(Nc1ccc(F)cc1)c1ccccc1 (stereo not given) ?
RESULT: > 50.6 µg/mL

QUERY: Next entry: CCn1c(C)c(C)c2cc(C(=O)N3CCCC3)ccc21
RESULT: > 40.6 µg/mL

QUERY: One more compound: Cc1c(-c2nc(-c3ccc(C(C)(C)C)cc3)no2)n(C)oc1=O
RESULT: < 0.2 µg/mL

QUERY: And the next one, CN(C)S(=O)(=O)c1ccc(C(=O)OCC(=O)N2CC3(C)CC2CC(C)(C)C3)cc1 (stereo not given) ?
RESULT: > 63.4 µg/mL

QUERY: Another compound to look at: CN(CC(=O)NCCN1CCOCC1)S(=O)(=O)c1ccc(Cl)cc1
RESULT: > 56.4 µg/mL

QUERY: One more compound: CC(=O)c1cccc(NC(=S)NCCc2ccc(F)cc2)c1
RESULT: > 47.5 µg/mL

QUERY: Same thing, different compound: COc1ccc(NC(=O)Cn2c(C)csc2=O)c(OC)c1
RESULT: > 46.3 µg/mL

QUERY: Likewise for O=C(COC(=O)c1cc(S(=O)(=O)N2CCOCC2)c(Cl)cc1Cl)NCc1ccco1 ?
RESULT: > 71.6 µg/mL

QUERY: Lookup O=C(Cn1ccc(=O)[nH]c1=O)NCCO
RESULT: > 32 µg/mL

QUERY: And then O=C(/C=C/NCc1cccnc1)c1ccc(Br)cc1 , what is it?
RESULT: > 47.6 µg/mL
